Hey, just so you know, these numbers are from patent US20100120703A1.

# Test system: HepG2 cells
# Assay Overview: Neutral red cell viability assay
# Assay type: cell-based
# Condition Notes: Homo sapiens, HepG2; 72 hours, neutral red

{"Compound": "C=CC/C(=N/OS(=O)(=O)[O-])S[C@@H]1OC(CO)[C@@H](O)C(O)C1O.[K+] (stereo partly shown)", "IC50": "< 250 µM"}
